Molecular target: κ opioid receptor (Homo sapiens, UniProt P41145)
Sequence (P41145 whole entry): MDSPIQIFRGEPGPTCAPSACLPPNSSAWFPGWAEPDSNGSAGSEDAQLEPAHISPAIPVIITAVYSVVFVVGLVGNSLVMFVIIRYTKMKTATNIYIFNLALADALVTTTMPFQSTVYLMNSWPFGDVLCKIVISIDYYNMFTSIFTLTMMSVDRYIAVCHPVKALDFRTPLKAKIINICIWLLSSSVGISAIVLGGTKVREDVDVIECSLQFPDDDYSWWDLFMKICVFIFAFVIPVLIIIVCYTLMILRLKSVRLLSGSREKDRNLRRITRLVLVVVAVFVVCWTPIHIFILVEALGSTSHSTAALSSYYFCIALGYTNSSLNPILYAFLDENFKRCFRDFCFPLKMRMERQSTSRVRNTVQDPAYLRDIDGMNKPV
Test: κ-opioid receptor [35S]GTPγS functional assay
Format: biochemical
Design: expressed in transfected cells
Conditions: κ membrane protein (in-house); μM; read-out: GTPγS κ EC50
endpoint: EC50

Qu. Using the record for C[C@H]1[C@H]2Cc3ccc(O)cc3[C@]1(CCCC(N)=O)CCN2Cc1ccccc1 , report its EC50.
Ans. > 20 µM

---

Test system UniProtKB P41143, log10(Ki) listed for each of the molecules.
Sequence (P41143 whole entry): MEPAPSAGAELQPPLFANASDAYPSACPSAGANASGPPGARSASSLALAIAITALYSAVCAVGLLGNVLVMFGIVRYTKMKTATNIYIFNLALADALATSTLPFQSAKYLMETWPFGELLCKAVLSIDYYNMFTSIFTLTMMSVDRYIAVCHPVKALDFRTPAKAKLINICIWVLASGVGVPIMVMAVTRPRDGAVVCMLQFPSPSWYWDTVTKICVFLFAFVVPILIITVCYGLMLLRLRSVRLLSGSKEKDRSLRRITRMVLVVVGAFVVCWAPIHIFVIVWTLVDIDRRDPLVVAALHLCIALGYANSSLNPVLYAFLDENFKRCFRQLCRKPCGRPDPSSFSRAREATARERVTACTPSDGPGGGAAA
Hello, just confirming the data are log10 of Ki with units of nM.

>>> reportedresult("COC(=O)[C@H](C)NC(=O)CCC[C@]12CCN(CC3CC3)[C@H](Cc3ccc(O)cc31)[C@@H]2C")
0.94
>>> reportedresult("CC(C)CN1CC[C@@]2(CCCC(N)=O)c3cc(O)ccc3C[C@@H]1[C@@H]2C")
2.19
>>> reportedresult("COc1ccc2c(c1)[C@@]1(CCCCO)CCN(CC3CC3)C(C2)[C@@H]1C")
4.21
>>> reportedresult("COc1ccc2c(c1)[C@@]1(CCC[C@H](O)CO)CCN(CC3CC3)C(C2)[C@@H]1C")
3.70
>>> reportedresult("C[C@H]1[C@H]2Cc3ccc(O)cc3[C@]1(CCOc1cncc(C(=O)O)c1)CCN2CC1CC1")
1.80

Qu. Notebook: pull reported log10(Ki) for UniProtKB P41143, entry COC(=O)CCC[C@]12CCN(CC3CC3)[C@H](Cc3ccc(O)cc31)[C@@H]2C
Ans. 1.51

Qu. Notebook entry, UniProtKB P41143 assay: log10(Ki) of COc1ccc2c(c1)[C@@]1(CCCc3ccco3)CCN(CC3CC3)C(C2)C1C (stereo in doubt) = ?
Ans. 2.87

---

# key: entry, value: pKi
Biological target: μ-opioid receptor (Homo sapiens)
Assay: μ-opioid receptor radioligand dose-displacement binding assay
Sequence (P35372 whole entry): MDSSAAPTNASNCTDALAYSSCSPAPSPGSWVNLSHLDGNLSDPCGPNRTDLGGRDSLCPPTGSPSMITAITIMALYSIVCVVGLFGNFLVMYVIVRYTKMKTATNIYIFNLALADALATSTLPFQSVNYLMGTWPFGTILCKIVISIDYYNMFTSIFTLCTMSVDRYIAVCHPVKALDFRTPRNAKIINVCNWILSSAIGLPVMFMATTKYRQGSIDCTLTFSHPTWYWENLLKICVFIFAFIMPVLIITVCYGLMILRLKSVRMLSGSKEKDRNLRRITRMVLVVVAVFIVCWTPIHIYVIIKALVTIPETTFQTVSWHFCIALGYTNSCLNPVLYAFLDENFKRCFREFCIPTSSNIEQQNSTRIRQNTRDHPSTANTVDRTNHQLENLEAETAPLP
Recall that pKi is obtained by taking minus log10 of the concentration measured in molar.

Qu. Entry COc1ccc2c(c1)[C@@]1(C[C@H](O)CO)CCN(CC3CC3)C(C2)[C@@H]1C [Compound 6] has what pKi?
Ans. 5.48

Qu. If you can, please state the reported pKi value of COc1ccc2c(c1)[C@@]1(CCC[C@H](O)CO)CCN(CC3CC3)C(C2)[C@@H]1C [Compound 11] .
Ans. 6.63

Qu. Data request, read-out pKi, for COc1ccc2c(c1)[C@@]1(CCCCO)CCN(CC3CC3)C(C2)[C@@H]1C [Compound 13]
Ans. 5.47

Qu. Which pKi value belongs to COc1ccc2c(c1)[C@@]1(CCC[C@@H](O)CO)CCN(CC3CC3)C(C2)[C@@H]1C [Compound 10] ?
Ans. 5.51

---

Target: μ-opioid receptor (Homo sapiens)
Assay: μ-opioid receptor [35S]GTPγS functional assay
Type: biochemical
Set-up: purchased Perkin Elmer, Shelton, Conn
Settings: μ-receptor membranes; read-out: GTPγS μ EC50
Sequence (P35372 whole entry, species assumed): as the sequence (P35372 whole entry) above
endpoint: EC50 (nM)
Write the answer as a number in nM, unit excluded.

Please review the entries below; each comes with its answer.
>>> reportedresult("CC(C)CN1CC[C@@]2(CCCC(N)=O)c3cc(O)ccc3C[C@@H]1[C@@H]2C")
9.12
>>> reportedresult("C[C@H]1[C@H]2Cc3ccc(O)cc3[C@]1(CCNC(=O)CN(C)C)CCN2CC1CC1")
4.85
>>> reportedresult("C[C@H]1[C@H]2Cc3ccc(O)cc3[C@@]1(CCNC(=O)CN)CCN2CC1CC1")
2.87

Qu. I am curious: what EC50 value has been reported for COc1ccc2c(c1)[C@@]1(CCCC(=O)N[C@@H](C)C(N)=O)CCN(CC3CC3)C(C2)[C@@H]1C ?
Ans. 1300

Qu. Quick one: EC50 of C[C@H]1[C@H]2Cc3ccc(O)cc3[C@]1(CCOc1ccc(C(=O)O)cc1)CCN2CC1CC1 ?
Ans. 5.92

Qu. Reported EC50, compound COC(=O)[C@H](C)NC(=O)CCC[C@]12CCN(CC3CC3)[C@H](Cc3ccc(O)cc31)[C@@H]2C : ____
Ans. 5.45

---

Target: human opioid receptor-like receptor (ORL-1) (Homo sapiens, UniProt P41146)
Construct: host or cells: HEK-293
Sequence (P41146 whole entry): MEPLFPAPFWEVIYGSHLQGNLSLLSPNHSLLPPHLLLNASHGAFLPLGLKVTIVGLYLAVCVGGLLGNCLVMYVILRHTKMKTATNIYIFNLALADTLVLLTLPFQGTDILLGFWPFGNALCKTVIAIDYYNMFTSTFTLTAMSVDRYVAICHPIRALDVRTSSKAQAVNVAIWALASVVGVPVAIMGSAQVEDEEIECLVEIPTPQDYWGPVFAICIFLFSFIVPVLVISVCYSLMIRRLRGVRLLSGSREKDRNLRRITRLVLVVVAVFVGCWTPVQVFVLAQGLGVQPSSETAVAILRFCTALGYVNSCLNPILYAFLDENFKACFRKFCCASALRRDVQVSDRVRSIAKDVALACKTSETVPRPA
Experiment: ORL-1 receptor radioligand binding assay
endpoint: pKi
Value format note: pKi is -log10 of concentration (mol/L); just state the number.

Qu. Fill in: pKi of COc1ccc2c(c1)[C@@]1(CCC[C@H](O)CO)CCN(CC3CC3)C(C2)[C@@H]1C is ___
Ans. 4.88

---

The reader will find reported Emax values listed item by item below.
Target: μ-opioid receptor (Homo sapiens)
Experiment: μ-opioid receptor [35S]GTPγS functional assay
Assay type: biochemical
Set-up: purchased Perkin Elmer, Shelton, Conn
Conditions: relative to the effect elicited by DAMGO
The reply should consist of the numeric value with the unit placed after it.

>>> reportedresult("C[C@H](NC(=O)CCC[C@]12CCN(CC3CC3)[C@H](Cc3ccc(O)cc31)[C@@H]2C)C(N)=O [Compound 22]")
"22.3%"

Qu. What measured Emax goes with C[C@H]1[C@H]2Cc3ccc(O)cc3[C@]1(CCOc1cncc(C(=O)O)c1)CCN2CC1CC1 [Compound 16] ?
Ans. 26%

Qu. Bench note: what Emax did COc1ccc2c(c1)[C@@]1(CC(=O)O)CCN(CC3CC3)[C@@H](C2)[C@H]1C [Compound 29] show?
Ans. 24.8%

Qu. Report Emax for COc1ccc2c(c1)[C@]1(CCOc3ccc(C(=O)O)cc3)CCN(CC3CC3)[C@H](C2)[C@@H]1C [Compound 27] please.
Ans. 94.7%

---

Molecular target: UniProt P41145
Test: κ-opioid receptor radioligand dose displacement binding assay
Design: expressed in transfected cells; host or cells: HEK-293
endpoint: pKi
Reminder that pKi means the negative base-10 logarithm of the concentration expressed in mol/L.

Use these answered entries as a reference point.
>>> reportedresult("COc1ccc2c(c1)[C@@]1(C[C@H](O)CO)CCN(CC3CC3)C(C2)[C@@H]1C [Compound 6]")
7.33
>>> reportedresult("COc1ccc2c(c1)[C@@]1(CCC[C@@H](O)CO)CCN(CC3CC3)C(C2)[C@@H]1C [Compound 10]")
8.18
>>> reportedresult("COc1ccc2c(c1)[C@@]1(CCCCO)CCN(CC3CC3)C(C2)[C@@H]1C [Compound 13]")
8.15

Qu. For COc1ccc2c(c1)[C@@]1(CCC[C@H](O)CO)CCN(CC3CC3)C(C2)[C@@H]1C [Compound 11] , what is its reported pKi?
Ans. 8.49

---

Biological target: μ-opioid receptor (Homo sapiens)
Test: μ-opioid receptor [35S]GTPγS functional assay
Format: biochemical
Set-up: purchased Perkin Elmer, Shelton, Conn
Settings: relative to the effect elicited by DAMGO
This listing pairs compounds with measured Emax.
Respond with the bare value in %.

Some entries whose results are on file:
>>> reportedresult("COc1ccc2c(c1)[C@@]1(CCCC(=O)N[C@@H](C)C(N)=O)CCN(CC3CC3)C(C2)[C@@H]1C [Compound 14]")
64
>>> reportedresult("COc1ccc2c(c1)[C@@]1(CCCCOCc3ccccc3)CCN(CC3CC3)C(C2)[C@@H]1C [Compound 12]")
30.8
>>> reportedresult("COC(=O)c1cccc(C(=O)NCC[C@]23CCN(CC4CC4)[C@H](Cc4ccc(OC)cc42)[C@@H]3C)c1 [Compound 26]")
95
>>> reportedresult("COc1ccc2c(c1)[C@]1(CCNC(=O)c3cccc(C(=O)O)c3)CCN(CC3CC3)[C@H](C2)[C@@H]1C [Compound 24]")
76.3

Qu. What value of measured Emax is listed for CC(C)N1CC[C@@]2(CCCC(N)=O)c3cc(O)ccc3C[C@@H]1[C@@H]2C [Compound 17] ?
Ans. 38

---

Target: μ-opioid receptor (Homo sapiens)
Assay: μ-opioid receptor radioligand dose-displacement binding assay
Details: [3H]-diprenorphine displacement; read-out: Ki (nM) Opioid Receptor μ
Labelling field: enter t if recorded Ki is less than 5 nM. Enter f if it equals or exceeds that cut-off.

Would you please look over these solved cases?
>>> grouplabel("COc1ccc2c(c1)[C@@]1(CCCCOCc3ccccc3)CCN(CC3CC3)C(C2)[C@@H]1C")
"f"
>>> grouplabel("COC(=O)c1cccc(C(=O)NCC[C@]23CCN(CC4CC4)[C@H](Cc4ccc(OC)cc42)[C@@H]3C)c1")
"f"
>>> grouplabel("C[C@H]1[C@H]2Cc3ccc(O)cc3[C@]1(CCCC(N)=O)CCN2Cc1ccccc1")
"t"
>>> grouplabel("C[C@H]1[C@H]2Cc3ccc(O)cc3[C@]1(CCOc1cncc(C(=O)O)c1)CCN2CC1CC1")
"f"
>>> grouplabel("COc1ccc2c(c1)[C@@]1(CCCC(=O)O)CCN(CC3CC3)C(C2)[C@@H]1C")
"f"
>>> grouplabel("C[C@H]1[C@H]2Cc3ccc(O)cc3[C@]1(CCCC(N)=O)CCN2CC1CC1")
"f"

Qu. Hi there! Is Ki for C[C@H]1C2Cc3ccc(O)cc3[C@@]1(CCCC(=O)O)CCN2CC1CC1 below 5 nM, do you know?
Ans. f

Qu. Problem: For the molecule C[C@H](NC(=O)C[C@@]12CCN(CC3CC3)C(Cc3ccc(O)cc31)[C@@H]2C)C(N)=O , is Ki under 5 nM?
Ans. f

Qu. Hi there! Is Ki for COC(=O)CCC[C@]12CCN(CC3CC3)[C@H](Cc3ccc(O)cc31)[C@@H]2C below 5 nM, do you know?
Ans. t
